# Test system: HeLa
# Experiment Notes: Resazurin screening assay, 2D culture
# Assay type: cell-based, human
# Measurement Parameters: HeLa (Cervix), 72 h, secondary metabolites and cisplatin
pIC50: −log10 of the molar value.
Measured Metric: pIC50

INSERT INTO assay_data (molecule, measured_number) VALUES
  ('N.N.[Cl][Pt][Cl] [CisPt, cisplatin]', 4.45);

----------
# System: BLM
# Experiment Notes: Resazurin screening assay, 3D spheroids
# Assay type: cell-based, human
# Measurement Parameters: BLM (Melanoma), 72 h, secondary metabolites and cisplatin
Measured Metric: IC50 (µM)

INSERT INTO results (molecule, unit_annotation, measured_number) VALUES
  ('N.N.[Cl][Pt][Cl] [CisPt, cisplatin]', 'µM', 89.9);

----------
# Tested on: BJ-5ta
# Experiment Notes: Resazurin screening assay, 2D culture
# Format: cell-based, human
# Measurement Parameters: BJ-5ta (Skin Fibroblasts), non-cancerous, 72 h, secondary metabolites and cisplatin
pIC50: −log10 of the molar value.
Measured Metric: pIC50

INSERT INTO measurements (compound, measured_number) VALUES
  ('N.N.[Cl][Pt][Cl] [CisPt, cisplatin]', 4.42);

----------
# Test system: Jurkat
# Experiment Notes: Resazurin screening assay, 2D suspension culture
# Type: cell-based, human
# Measurement Parameters: Jurkat (Leukemia), 72 h, secondary metabolites and cisplatin
pIC50: −log10 of the molar value.
Measured Metric: pIC50

INSERT INTO results (molecule, measured_number) VALUES
  ('N.N.[Cl][Pt][Cl] [CisPt, cisplatin]', 5.20);

----------
# Test system: A2780
# Experiment Notes: Resazurin screening assay, 3D spheroids
# Assay type: cell-based, human
# Measurement Parameters: A2780 (Ovarian), 72 h, secondary metabolites and cisplatin
Measured Metric: IC50 (µM)

INSERT INTO assay_data (compound, measured_metric, unit_annotation, measured_number) VALUES
  ('N.N.[Cl][Pt][Cl] [CisPt, cisplatin]', 'IC50', 'µM', 134);

----------
# Tested on: MCF-7
# Experiment Notes: Resazurin screening assay, 2D culture
# Assay type: cell-based, human
# Measurement Parameters: MCF-7 (Breast ER+), 72 h, secondary metabolites and cisplatin
pIC50: −log10 of the molar value.
Measured Metric: pIC50

INSERT INTO measurements (compound, measured_metric, measured_number) VALUES
  ('N.N.[Cl][Pt][Cl] [CisPt, cisplatin]', 'pIC50', 4.53);
